# Test system: IL-2
# test-description: IL-2 in PBMCs on anti-human CD3 (OKT3) coated plates, Mesoscale analysis
# Type: cell-based
# condition-set: PBMC, 24 h, 0.1 μM, relative to DMSO control, read-out: Fold Change IL-2
Everything with fold induction at 0.1 µM lower than 1 is Not met; everything else, including exactly 1, is Met.

A selection of reference data follows.
Cc1ccc(NC(=O)NCCc2ccc3c(c2)CN([C@H]2CCCC(=O)NC2=O)C3=O)cc1Cl [Compound 24] = Not met
Cc1ccc(NC(=S)NCc2ccc3c(c2)CN([C@H]2CCCC(=O)NC2=O)C3=O)cc1Cl [Compound 26] = Not met
Cc1ccc(NC(=O)NCc2ccc3c(c2C)CN([C@H]2CCCC(=O)NC2=O)C3=O)cc1Cl [Compound 16] = Met
Cc1ccc(NC(=O)NCc2ccc3c(c2)C(=O)N([C@H]2CCCC(=O)NC2=O)C3=O)cc1Cl [Compound 27] = Met
O=C(Cc1cccc(CN2CCOCC2)c1)NCc1ccc2c(c1)CN([C@H]1CCCC(=O)NC1=O)C2=O [Compound 14] = Not met

## Input Is it the case that Cc1ccc(N(C)C(=O)NCc2ccc3c(c2)CN([C@H]2CCCC(=O)NC2=O)C3=O)cc1Cl [Compound 21] has fold induction at 0.1 µM reaching or exceeding 1?
## Output Not met

## Input Check this compound for fold induction at 0.1 µM at or above 1: Cc1ccc(CNC(=O)NCc2ccc3c(c2)CN([C@H]2CCCC(=O)NC2=O)C3=O)cc1Cl [Compound 18]
## Output Met

## Input Is fold induction at 0.1 µM for Cc1ccc(NC(=O)NCc2cc3c(cc2F)C(=O)N([C@H]2CCCC(=O)NC2=O)C3)cc1Cl [Compound 22] at or above 1?
## Output Met

## Input Is it the case that Cc1ccc(NC(=O)NCCc2cccc3c2CN([C@H]2CCCC(=O)NC2=O)C3=O)cc1Cl [Compound 23] has fold induction at 0.1 µM reaching or exceeding 1?
## Output Not met

## Input Check the entry Cc1ccc(CCNC(=O)NCc2ccc3c(c2)CN([C@H]2CCCC(=O)NC2=O)C3=O)cc1Cl [Compound 19] : does fold induction at 0.1 µM equal or exceed 1?
## Output Met

----------
# study-target: GSPT1 (Homo sapiens, UniProt P15170)
# Construct: Whole cell extract was prepared with RIPA buffer according to manufacturer's protocol; endogenous in cells; host or cells: Jurkat cells
# Sequence (P15170 whole entry): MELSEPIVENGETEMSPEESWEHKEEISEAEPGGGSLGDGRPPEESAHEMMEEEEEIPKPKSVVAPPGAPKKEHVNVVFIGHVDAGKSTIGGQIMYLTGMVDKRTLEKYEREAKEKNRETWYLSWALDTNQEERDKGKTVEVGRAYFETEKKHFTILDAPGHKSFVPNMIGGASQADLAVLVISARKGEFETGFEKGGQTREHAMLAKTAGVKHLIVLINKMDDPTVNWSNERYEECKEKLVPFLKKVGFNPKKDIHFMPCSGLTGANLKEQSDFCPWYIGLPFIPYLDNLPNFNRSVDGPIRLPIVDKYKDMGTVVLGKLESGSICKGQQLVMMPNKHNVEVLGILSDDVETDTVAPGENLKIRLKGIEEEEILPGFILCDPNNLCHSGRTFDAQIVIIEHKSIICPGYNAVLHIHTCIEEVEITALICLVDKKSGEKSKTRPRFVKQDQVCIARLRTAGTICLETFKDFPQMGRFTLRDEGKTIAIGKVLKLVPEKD
# test-description: Western blot analysis of GSPT1 protein levels in Jurkat cells
# Format: cell-based
# condition-set: 100 nM compound, DMSO = 100.00
# Protocol: FIG. 1 represents the activity against CK1α, ikaros, and GPST1 in Jurkat cells, plated in 96 well plates. Cells were pretreated with compounds for 4 h and then lysed and protein levels measure via Western blots. The negative control wells were treated with DMSO. Cells were treated with the indicated compound at the indicated concentration. Compound activity is measured as a decrease in GSPT1 protein levels. […]
Collected GSPT1 protein level (% of DMSO control) at 0.1 µM values appear next to each entry.
# output: bare number, implied unit %

Cc1ccc(NC(=O)NCc2ccc3c(c2)C(=O)N([C@H]2CCCC(=O)NC2=O)C3=O)cc1Cl = 51.4
Cc1ccc(NC(=O)NCc2ccc3c(c2)CN(C2CCCC(=O)NC2=O)C3=O)cc1 (stereo not shown) = 134
Cc1ccc(N(C)C(=O)NCc2ccc3c(c2)CN([C@H]2CCCC(=O)NC2=O)C3=O)cc1Cl = 126
Cc1ccc(CNC(=O)NCc2ccc3c(c2)CN([C@H]2CCCC(=O)NC2=O)C3=O)cc1Cl = 69.7
Cc1ccc(NC(=O)NCc2cc3c(cc2F)C(=O)N([C@H]2CCCC(=O)NC2=O)C3)cc1Cl = 22.1
Cc1ccc(CC(=O)NCc2ccc3c(c2)CN([C@H]2CCCC(=O)NC2=O)C3=O)cc1CN1CCOCC1 = 137

## Input For Cc1ccc(NC(=O)NCc2cccc3c2CN([C@H]2CCCC(=O)NC2=O)C3=O)cc1Cl , what is its reported GSPT1 protein level (% of DMSO control) at 0.1 µM?
## Output 131

## Input # query: GSPT1 protein level (% of DMSO control) at 0.1 µM of entry Cc1ccc(CC(=O)NCc2ccc3c(c2)CN([C@H]2CCCC(=O)NC2=O)C3=O)cc1Cl
## Output 83.3

## Input Find the recorded GSPT1 protein level (% of DMSO control) at 0.1 µM belonging to Cc1ccc(NC(=O)NCCc2ccc3c(c2)CN([C@H]2CCCC(=O)NC2=O)C3=O)cc1Cl and report it.
## Output 122

## Input Quick one: GSPT1 protein level (% of DMSO control) at 0.1 µM for O=C(Cc1cccc(CN2CCOCC2)c1)NCc1ccc2c(c1)CN([C@H]1CCCC(=O)NC1=O)C2=O ?
## Output 145

## Input Consider the compound shown here: Cc1ccc(CNC(=O)NCc2cccc3c2CN([C@H]2CCCC(=O)NC2=O)C3=O)cc1Cl What is its recorded GSPT1 protein level (% of DMSO control) at 0.1 µM?
## Output 126

## Input Suppose we examine the compound Cc1ccc(NC(=S)NCc2ccc3c(c2)CN([C@H]2CCCC(=O)NC2=O)C3=O)cc1Cl ; what GSPT1 protein level (% of DMSO control) at 0.1 µM value has been reported?
## Output 61.6

## Input Could you share which GSPT1 protein level (% of DMSO control) at 0.1 µM value was measured for O=C(Cc1ccc(Cl)c(CN2CCOCC2)c1)NCc1ccc2c(c1)CN([C@H]1CCCC(=O)NC1=O)C2=O ?
## Output 167

## Input Would you mind telling me what GSPT1 protein level (% of DMSO control) at 0.1 µM value was observed for COc1ccc(CC(=O)NCc2ccc3c(c2)CN([C@H]2CCCC(=O)NC2=O)C3=O)cc1Cl ?
## Output 95.9

## Input For the compound Cc1ccc(NC(=O)NCc2ccc3c(c2C)CN([C@H]2CCCC(=O)NC2=O)C3=O)cc1Cl , what GSPT1 protein level (% of DMSO control) at 0.1 µM is on record?
## Output 59.4

## Input // query GSPT1 protein level (% of DMSO control) at 0.1 µM value for entry COc1ccc(NC(=O)NCc2ccc3c(c2)CN([C@H]2CCCC(=O)NC2=O)C3=O)cc1Cl
## Output 52.6
